Where do the numbers come from? From patent US5834461A.

# Measured on: oxytocin receptors (rat uterus membranes) (Rattus norvegicus)
# Construct: The resulting pellet containing the oxytocin receptors is resuspended; from tissue; host or cells: uterus membranes of DES-treated female Sprague-Dawley rats
# Sequence (P70536 1-388): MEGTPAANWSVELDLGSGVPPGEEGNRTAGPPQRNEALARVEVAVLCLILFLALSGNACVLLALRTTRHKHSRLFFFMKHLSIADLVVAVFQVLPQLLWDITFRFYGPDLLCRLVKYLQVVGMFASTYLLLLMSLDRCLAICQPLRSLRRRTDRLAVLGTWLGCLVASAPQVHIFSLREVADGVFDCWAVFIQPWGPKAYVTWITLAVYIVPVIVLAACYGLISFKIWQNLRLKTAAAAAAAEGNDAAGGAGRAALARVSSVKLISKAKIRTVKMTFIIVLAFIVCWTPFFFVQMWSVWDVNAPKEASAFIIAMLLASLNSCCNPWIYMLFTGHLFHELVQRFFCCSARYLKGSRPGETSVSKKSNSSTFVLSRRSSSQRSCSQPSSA
# Measurement protocol: Oxytocin Receptor Binding
# Design: species or system female Sprague-Dawley rats
# Test parameters: first part of Table V
pIC50: −log10 of the molar value.
Measurement name: pIC50

[
  {
    "Compound": "COc1cc(C(=O)N2Cc3ccccc3Cc3ccccc32)ccc1NC(=O)c1cc(F)ccc1C",
    "Reading": 6.68
  },
  {
    "Compound": "Cc1ccccc1C(=O)Nc1ccc(C(=O)N2Cc3ccccc3Cc3ccccc32)cc1",
    "Reading": 5.54
  },
  {
    "Compound": "O=C(Nc1ccc(C(=O)N2Cc3ccccc3Cc3ccccc32)c(Cl)c1)c1ccc(Cl)cc1Cl",
    "Reading": 5.19
  },
  {
    "Compound": "O=C(Nc1ccc(C(=O)N2Cc3ccccc3Cc3ccccc32)cc1)C1CC=CCC1 (stereo not shown)",
    "Reading": 6.34
  }
]
